Measured values drawn from paper PMC6152231 for this set.

tested on: BV2 microglial cells; test: cytotoxicity, MTT assay; type: cell-based, mouse; conditions: 10.0 μM, 24 h, BV2 microglial cells, n = 3; in % (unit assumed)
REPORTED_METRIC: Cell Viability

compound="CCCCOC(=O)C1OC(OC2CCC3(C)C(CCC4(C)C3CC=C3C5C(C(=O)OC6OC(CO)C(O)C(O)C6O)(CCC(C)C5(C)O)CCC34C)C2(C)C)C(O)C(O)C1O (stereo not drawn)" reported_metric="Cell Viability" reading=99.28
compound="C[C@H]1CC[C@]2(C(=O)O[C@@H]3O[C@H](CO)[C@@H](O)[C@H](O)[C@H]3O)CC[C@]3(C)C(=CCC4[C@@]5(C)CC[C@H](O[C@@H]6OC[C@H](O)[C@H](OS(=O)(=O)O)[C@H]6O)C(C)(C)C5CC[C@]43C)C2[C@]1(C)O (stereo partly drawn)" reported_metric="Cell Viability" reading=99.37
compound="C[C@@H]1C[C@H]2[C@@H]3CCC4=CC(=O)C=C[C@]4(C)[C@@]3(F)[C@@H](O)C[C@]2(C)[C@@]1(O)C(=O)CO [Dexamethasone, reference compound]" reported_metric="Cell Viability" reading=99.98
